TEST_SUMMARY: qHTS assay to identify small molecule antagonists of the peroxisome proliferator-activated receptor gamma (PPARg) signaling pathway - cell viability counter screen (AID 743194); also: nearly all actives have a fitted effect of over 55% in size
ASSAY_CONDITIONS: PPARg-bla HEK293H viability, CellTiter-Glo luminescence, 17 h, co-treated with 50 nM rosiglitazone; series mostly up to 62.6 µM
Inconclusive results are not listed. The source made the active and inactive calls. Calls follow the shape of the dose curve; as a rule, active = well fitted cell-killing curve with a large enough effect in the repeat runs; inconclusive = weak or mixed curves, or effect the other way; inactive = no such curve, though single readings can be large or run the other way.

CPD_SMILES | outcome
CCCCCCCCCCCCCC(=O)OC(C)C | inactive
O=C1OC(c2ccc(O)cc2)(c2ccc(O)cc2)c2ccccc21 | inactive
COc1ccccc1NC(=O)CC(C)=O | inactive

###

TEST_SUMMARY: qHTS assay to identify small molecule antagonists of the androgen receptor (AR) signaling pathway - cell viability counter screen (AID 743033; also: nearly all actives have a fitted effect of over 45% in size)
ASSAY_CONDITIONS: AR-bla HEK293 viability, CellTiter-Glo luminescence, 16 h; series mostly up to 58.5 µM
From the text: National Center for Advancing Translational Sciences [NCATS] NIH Chemical Genomics Center [NCGC] U.S. Environmental Protection Agency [EPA] National Institutes of Environmental Health Sciences [NIEHS] National Toxicology Program [NTP] U.S. Food and Drug Administration [FDA] Androgen receptor (AR), a nuclear hormone receptor, plays a critical role in AR-dependent prostate cancer and other androgen related diseases. […]
Results filed as inconclusive are left out. Calls of active or inactive are those of the source. Calls follow the shape of the dose curve; as a rule, active = well fitted cell-killing curve with a large enough effect in the repeat runs; inconclusive = weak or mixed curves; inactive = no such curve, though single readings can be large or run the other way.

MOLECULE | outcome
CCCCCCCCCCCCCCCCCC(=O)OCC(O)CO (centres undefined) | inactive
Cc1cccc(C)c1O | inactive
C/C=C/c1ccc(O)c(OC)c1 | inactive
Cc1cccc2ccccc12 | inactive
CC1=NN(c2ccccc2)C(=O)C1 | inactive
Nc1ccc(N=Nc2ccccc2)c(N)n1 | inactive
N[C@@H](Cc1c[nH]c2ccccc12)C(=O)O | inactive
CC(C)CC(C)CC(O)CC(C)C (centres undefined) | inactive
C=CCOC(=O)CC(C)C | inactive
C[C@]12C=CC(=O)C=C1CC[C@@H]1[C@@H]2C(=O)C[C@@]2(C)[C@H]1CC[C@]2(O)C(=O)CO | inactive
OC[C@@H](O)[C@@H](O)[C@H](O)[C@H](O)CO | inactive
COC(=O)C1CCC(C(=O)OC)CC1 (centres undefined) | inactive
COc1ccc(C(=O)c2ccccc2)c(O)c1 | inactive
CCCCOCCOCCOC(C)=O | inactive

###

TEST_SUMMARY: qHTS assay to identify small molecule antagonists of the estrogen receptor alpha (ER-alpha) signaling pathway using the BG1 cell line (AID 743080);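 also: BG1 cells stimulated with 17beta-estradiol alongside compound; nearly all actives have a fitted effect of over 25% in size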
ASSAY_CONDITIONS: BG1Luc4E2 ERE-luciferase antagonist mode, luminescence; series mostly up to 70.3 µM
Inconclusive results are not listed. Active and inactive are the calls of the source. The call rests on the fitted dose curve.

COMPOUND | outcome
O=C(O)CCCCC1CCSS1 (stereo unspecified) | inactive
COc1ccccc1NC(=O)CC(C)=O | inactive
CC(=O)c1ccc(S(=O)(=O)NC(=O)NC2CCCCC2)cc1 | inactive
Cc1cccc(Nc2cc(Cl)nc(SCC(=O)O)n2)c1C | inactive
C[C@]12C[C@H](O)[C@H]3[C@@H](CCC4=CC(=O)CC[C@@]43C)[C@@H]1CC[C@@H]2C(=O)CO | inactive
O=C(O)CN(CC(=O)O)CC(=O)O | inactive

###

TEST_SUMMARY: qHTS assay to identify small molecule agonists of the estrogen receptor beta (ER-beta) signaling pathway - cell viability counter screen (AID 1259380); also: nearly all actives have a fitted effect of over 30% in size
ASSAY_CONDITIONS: ER-beta-bla HEK293T viability, CellTiter-Glo luminescence, 16 h; series mostly up to 92.4 µM
Results filed as inconclusive are left out. Active and inactive are the calls of the source. The call rests on the fitted dose curve; in most records, active means well fitted cell-killing curve with a large enough effect in the repeat runs; inconclusive means weak or mixed curves, or effect the other way; inactive means flat fitted curve, though single readings scatter.
Labels: TRUE (active), FALSE (inactive)

COMPOUND | CLASS
CCCCOCCOCCOC(C)=O | FALSE
O=c1c(-c2ccc(O)cc2)coc2cc(O)cc(O)c12 | TRUE
CC(=O)/C=C/C1=C(C)CCCC1(C)C | FALSE
CCCCCCCCOc1ccc(C(=O)c2ccccc2)c(O)c1 | FALSE
CC(=O)c1ccc(S(=O)(=O)NC(=O)NC2CCCCC2)cc1 | FALSE
CN(C)Cc1cc(CN(C)C)c(O)c(CN(C)C)c1 | FALSE
CCOC(=O)C(C)(C)Oc1ccc(Cl)cc1 | FALSE
C1CNCCN1 | FALSE
CCCCCCCCCCCCCCCCCC(=O)OCC(O)CO (centres undefined) | FALSE
CC(C)=CCC/C(C)=C/CO | FALSE
CCCCOC(=O)CCCCCCCCC(=O)OCCCC | FALSE
Cn1cnc2c1c(=O)[nH]c(=O)n2C | FALSE
CCCCC/C(C=O)=C\c1ccccc1 | FALSE
O=[N+]([O-])c1ccc(O)cc1 | FALSE

###

ASSAYED_SYSTEM: Voltage-gated inwardly rectifying potassium channel KCNH2 (Homo sapiens) (UniProt Q12809)
Sequence (Q12809 whole entry, looked up): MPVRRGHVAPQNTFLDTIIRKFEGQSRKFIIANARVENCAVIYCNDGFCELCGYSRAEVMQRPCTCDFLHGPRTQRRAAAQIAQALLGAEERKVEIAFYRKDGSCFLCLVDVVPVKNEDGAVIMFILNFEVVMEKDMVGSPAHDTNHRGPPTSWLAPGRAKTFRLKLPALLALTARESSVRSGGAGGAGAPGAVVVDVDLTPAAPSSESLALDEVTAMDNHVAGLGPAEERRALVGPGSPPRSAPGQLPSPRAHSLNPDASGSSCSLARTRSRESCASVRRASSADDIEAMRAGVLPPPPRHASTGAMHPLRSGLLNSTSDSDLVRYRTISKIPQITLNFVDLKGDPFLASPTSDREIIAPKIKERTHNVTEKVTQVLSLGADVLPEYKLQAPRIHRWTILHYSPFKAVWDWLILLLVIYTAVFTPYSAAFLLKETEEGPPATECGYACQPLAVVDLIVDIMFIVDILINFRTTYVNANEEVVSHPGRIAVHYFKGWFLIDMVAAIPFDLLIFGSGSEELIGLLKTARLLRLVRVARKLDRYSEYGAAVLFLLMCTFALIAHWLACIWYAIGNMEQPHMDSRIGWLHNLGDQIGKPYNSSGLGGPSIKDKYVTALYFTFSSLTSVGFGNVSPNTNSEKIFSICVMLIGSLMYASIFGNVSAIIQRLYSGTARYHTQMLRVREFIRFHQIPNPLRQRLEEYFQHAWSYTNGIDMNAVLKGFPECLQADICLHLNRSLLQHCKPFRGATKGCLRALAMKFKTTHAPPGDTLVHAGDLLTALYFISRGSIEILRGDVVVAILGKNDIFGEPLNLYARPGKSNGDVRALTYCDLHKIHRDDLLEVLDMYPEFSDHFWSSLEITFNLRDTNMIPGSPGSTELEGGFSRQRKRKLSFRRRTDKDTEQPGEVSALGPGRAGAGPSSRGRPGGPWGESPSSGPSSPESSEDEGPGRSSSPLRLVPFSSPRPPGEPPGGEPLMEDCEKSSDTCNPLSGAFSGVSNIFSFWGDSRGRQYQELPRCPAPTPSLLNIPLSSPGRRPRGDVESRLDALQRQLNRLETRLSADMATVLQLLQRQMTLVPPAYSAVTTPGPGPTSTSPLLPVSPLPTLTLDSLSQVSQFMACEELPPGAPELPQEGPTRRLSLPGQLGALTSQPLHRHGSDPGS
TEST_SUMMARY: Human Ether-a-go-go-Related Gene (hERG) channel small molecule antagonists: fluorescence cell-based qHTS assay (AID 1671200);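 also: hERG-expressing U2OS cells given a thallium stimulus after FluxOR II dye loading; nearly all actives have a fitted effect of over 50% in size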
ASSAY_CONDITIONS: hERG-U2OS cells, FluxOR thallium flux fluorescence; series mostly up to 76.8 µM
Inconclusive results are not listed. Activity calls are given as the source filed them. Calls come from the whole dose curve; as a rule, active = well fitted inhibition curve with a large enough effect in the repeat runs; inconclusive = weak or mixed curves; inactive = flat fitted curve, though single readings scatter.
MEASURED_METRIC: outcome

COMPOUND | MEASUREMENT
O=C(OCc1ccccc1)c1ccccc1 | inactive
O=C(O)CN(CC(=O)O)CC(=O)O | inactive
OC[C@@H](O)[C@@H](O)[C@H](O)[C@H](O)CO | inactive
COC(=O)c1ccc(O)cc1 | inactive
C1CNCCN1 | inactive
Cc1c(N(C)CS(=O)(=O)O)c(=O)n(-c2ccccc2)n1C | inactive
Cc1cnc(NC(=O)C2=C(O)c3ccccc3S(=O)(=O)N2C)s1 | inactive
Oc1cccc(O)c1 | inactive
C[C@]12CC[C@@H]3c4ccc(O)cc4C[C@@H](CCCCCCCCCS(=O)CCCC(F)(F)C(F)(F)F)[C@H]3[C@@H]1CC[C@@H]2O (some centres undefined) | inactive

###

TEST_SUMMARY: qHTS assay for small molecules that induce genotoxicity in human embryonic kidney cells expressing luciferase-tagged ATAD5 - cell viability (AID 651634); also: nearly all actives have a fitted effect of over 25% in size
ASSAY_CONDITIONS: HEK293T ATAD5-luc cells viability, CellTiter-Fluor, 15.5 h; series mostly up to 83.3 µM
Records with an inconclusive call do not appear. Active and inactive are the calls of the source. Calls come from the whole dose curve.
Labels: YES for active, NO for inactive

CPD_SMILES | CLASS
C/C=C/c1ccc(O)c(OC)c1 | NO
Cc1cccc2ccccc12 | NO
COc1ccc(C(=O)c2ccccc2)c(O)c1 | NO
OC[C@@H](O)[C@@H](O)[C@H](O)[C@H](O)CO | NO
COC1=CC(=O)C[C@@H](C)[C@]12Oc1c(Cl)c(OC)cc(OC)c1C2=O | NO
C#C[C@]1(O)CC[C@H]2[C@@H]3CCc4cc(O)ccc4[C@H]3CC[C@@]21C | YES
COc1ccccc1NC(=O)CC(C)=O | NO

###

TEST_SUMMARY: qHTS assay to identify small molecule HDAC inhibitors (AID 1259364);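 also: wild-type HCT-116 cells with endogenous class I/II HDAC activity; top concentration of the series differs between compounds; nearly all actives have a fitted effect of over 45% in size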
ASSAY_CONDITIONS: HCT-116 HDAC-Glo I/II luminescence, 2 h; series mostly up to 92.4 µM
Records with an inconclusive call do not appear. Calls of active or inactive are those of the source. The call rests on the fitted dose curve; in most records, active means well fitted inhibition curve with a large enough effect in the repeat runs; inconclusive means weak or mixed curves; inactive means flat fitted curve, though single readings scatter.

CPD_SMILES | outcome
CO[C@H]1C=CO[C@@]2(C)Oc3c(C)c(O)c4c(O)c(c(/C=N/N5CCN(C)CC5)c(O)c4c3C2=O)NC(=O)/C(C)=C\C=C[C@H](C)[C@H](O)[C@@H](C)[C@@H](O)[C@@H](C)[C@H](OC(C)=O)[C@@H]1C | inactive
COC1=CC(=O)C[C@@H](C)[C@]12Oc1c(Cl)c(OC)cc(OC)c1C2=O | inactive
Cc1cccc(C)c1O | inactive

###

ASSAYED_SYSTEM: Estrogen receptor beta (Homo sapiens) (UniProt Q92731)
Sequence (Q92731 whole entry, looked up): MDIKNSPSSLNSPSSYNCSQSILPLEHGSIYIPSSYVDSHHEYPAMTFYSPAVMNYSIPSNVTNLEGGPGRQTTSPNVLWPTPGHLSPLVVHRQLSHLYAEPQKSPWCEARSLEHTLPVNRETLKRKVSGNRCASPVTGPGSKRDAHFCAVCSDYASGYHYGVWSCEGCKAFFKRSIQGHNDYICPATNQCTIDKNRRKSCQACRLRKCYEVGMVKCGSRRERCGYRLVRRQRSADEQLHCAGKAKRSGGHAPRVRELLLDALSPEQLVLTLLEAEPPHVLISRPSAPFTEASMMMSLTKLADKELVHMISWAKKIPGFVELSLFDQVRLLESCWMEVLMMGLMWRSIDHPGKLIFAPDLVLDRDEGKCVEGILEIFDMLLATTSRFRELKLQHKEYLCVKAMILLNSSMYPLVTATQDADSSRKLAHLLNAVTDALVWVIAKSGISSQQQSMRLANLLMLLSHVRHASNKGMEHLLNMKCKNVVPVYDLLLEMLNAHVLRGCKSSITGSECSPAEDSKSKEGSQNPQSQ
TEST_SUMMARY: qHTS assay to identify small molecule antagonists of the estrogen receptor beta (ER-beta) signaling pathway (AID 1259378)
ASSAY_CONDITIONS: ER-beta-UAS-bla HEK293T, beta-lactamase FRET ratio, 16 h; series mostly up to 92.4 µM
Results filed as inconclusive are left out. Calls of active or inactive are those of the source. The call rests on the fitted dose curve; in most records, active means well fitted inhibition curve with a large enough effect in the signal ratio in the repeat runs (not every such curve was filed as active); inconclusive means weak or mixed curves, or effect the other way; inactive means no such curve, though single readings can be large or run the other way; the % refers to the signal ratio.
Labels: active, inactive

COMPOUND | ASSAYED_SYSTEM | CLASS
CCCCOC(=O)CCCCCCCCC(=O)OCCCC | Estrogen receptor beta (Homo sapiens) (UniProt Q92731) | inactive
CC(=O)c1ccc(S(=O)(=O)NC(=O)NC2CCCCC2)cc1 | Estrogen receptor beta (Homo sapiens) (UniProt Q92731) | inactive
Cc1ccc(O)c(-n2nc3ccccc3n2)c1 | Estrogen receptor beta (Homo sapiens) (UniProt Q92731) | inactive
N[C@@H](Cc1c[nH]c2ccccc12)C(=O)O | Estrogen receptor beta (Homo sapiens) (UniProt Q92731) | inactive
COc1cc2c(c(OC)c1OC)-c1ccc(OC)c(=O)cc1[C@@H](NC(C)=O)CC2 | Estrogen receptor beta (Homo sapiens) (UniProt Q92731) | inactive
O=C(O)CCCCC1CCSS1 (stereo not given) | Estrogen receptor beta (Homo sapiens) (UniProt Q92731) | inactive
CC(=O)OC/C=C(C)/C=C/C=C(C)/C=C/C1=C(C)CCCC1(C)C | Estrogen receptor beta (Homo sapiens) (UniProt Q92731) | active
CC(O)COc1ccccc1 (stereo not given) | Estrogen receptor beta (Homo sapiens) (UniProt Q92731) | inactive
O=C1CCCCCN1 | Estrogen receptor beta (Homo sapiens) (UniProt Q92731) | inactive
CC1(C)O[C@@H]2[C@@H](CO[C@@]3(COS(N)(=O)=O)OC(C)(C)O[C@@H]23)O1 | Estrogen receptor beta (Homo sapiens) (UniProt Q92731) | inactive
